TARGET_DESC: T1, Pot1-DBD_L122A (Schizosaccharomyces pombe, UniProt O13988 1-389, L122A)
T1 sequence: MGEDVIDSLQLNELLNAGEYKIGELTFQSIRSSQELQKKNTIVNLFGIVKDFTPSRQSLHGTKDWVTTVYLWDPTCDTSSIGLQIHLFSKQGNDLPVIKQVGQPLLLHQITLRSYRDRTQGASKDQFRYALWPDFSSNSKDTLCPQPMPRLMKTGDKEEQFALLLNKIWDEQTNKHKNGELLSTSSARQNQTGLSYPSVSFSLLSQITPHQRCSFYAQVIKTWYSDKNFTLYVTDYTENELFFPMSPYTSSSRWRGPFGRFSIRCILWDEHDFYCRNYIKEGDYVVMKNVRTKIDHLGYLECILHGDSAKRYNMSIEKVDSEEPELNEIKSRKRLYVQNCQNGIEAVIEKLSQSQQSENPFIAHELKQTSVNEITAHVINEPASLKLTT
PROTOCOL_NOTES: EMSA
MEASURE_NAME: Kd (pM)
Answer format: numeric, pM implied, no suffix.

>>> data_value("GGTTACGGTTACGGT (ssDNA) [15mer]")
10

Challenge: Entry GGTTACGGTTAC (ssDNA) [12mer] : reported Kd = ?
Response given: 770
